Experiment: protein stability index of a GFP-peptide fusion (GPS, HEK-293T) (PSI 1-6); higher = more stable;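 further: 24-mer peptide tiles fused after GFP, lentivirally expressed, FACS-sorted into six equal bins by GFP/DsRed ratio, decoded by Illumina sequencing, PSI is the read-weighted mean bin number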
Conditions: treatment: MLN4924 1 uM, 8 h; c terminus: a fixed tail appended
sequences and their reported protein stability index
READOUT: protein stability index

| SEQUENCE_STRING | READOUT | VALUE_MEASURED |
| --- | --- | --- |
| FTSPDYQQQCHEMAERLEDSVLKG [SDE2] | protein stability index | 3.62 |
| AKLVPSEREASPSNSCQDSTDTES [IKZF1] | protein stability index | 5.53 |
| SSFSRPLGYPYVNSVSSHASSPYI [DLX1] | protein stability index | 2.79 |
| LTEHQRIHTGIKPHQCSECGRAFS [ZNF649] | protein stability index | 3.69 |
| ILQLEECCTHNNSATLSWKQPPLS [TRIM9] | protein stability index | 2.78 |
| KYRRHFLRFCHNNKKAKRYLLHGL [EIF5] | protein stability index | 2.27 |
| DDRKLAALLKFHTLDSYEDKQKLK [YJU2B] | protein stability index | 4.12 |
| ACSEGDVNAVRKLLIEGRSVNEHT [ANKRD17] | protein stability index | 4.64 |
| LNPHVHLVGDDAACIAYIRLTQYM [CAMK2D] | protein stability index | 2.29 |
| PEGSVSGSQPNSGLALESSSGLQD [NFE2L1] | protein stability index | 5.51 |
| MPLEQRSQHCKPEEGLEARGEALG [MAGEA3] | protein stability index | 5.39 |
| LSTIEELIKDAIVSTQPAMMVNLR [C2CD2L] | protein stability index | 2.35 |
| MNKSENLLFAGSSLASQVHAAAVN [INVS] | protein stability index | 3.35 |
| LSSVPSEAQISDPFAPEPTPPTTT [SNAP91] | protein stability index | 5.3 |
| IREQIKKYRRHFLRFCHNNKKAKR [EIF5] | protein stability index | 2.33 |
| RGRFTTYEIRVKTNLPIFKLKEST [SNX3] | protein stability index | 2.47 |
| VIFQREQESKNQVHRRGEYNVYST [PPP2R2B] | protein stability index | 3.04 |
| AQAGTPAPTKPHDYRQEQPETFWI [SPAG8] | protein stability index | 3.59 |
| TQAPPSVILGVTNPFFAKTLQHWP [DENND6A] | protein stability index | 2.12 |
| YNPPKDDGSTYKIELEGISVMVMR [GAN] | protein stability index | 2.24 |
| SRKKPIWNVLMWTSLFLGNGVLLC [SOAT1] | protein stability index | 2.73 |
| EREASPSNSCQDSTDTESNNEEQR [IKZF1] | protein stability index | 5.61 |
| FSLMVTFPDVPLGIFLFCVCVIAI [TMEM175] | protein stability index | 3.14 |
| EFLPQGPVAMRVAKLAINQGMEVD [AUH] | protein stability index | 3.82 |
| SDGILRGNGTGYLPGRGRVLSSWS [RHOBTB2] | protein stability index | 3.26 |
| YLAFAASNVRGSLNVNLNSVVLRR [DUSP5] | protein stability index | 2.69 |
| CEYNFVSPSKSFWTRITCAEEGWS [CFHR2] | protein stability index | 2.05 |
